Property: cytotoxicity at 10 µM; scope: individual compounds
experiment-summary: Toxicity liver stage against HepG2, at 10uM
Type: cell-based
Parameters: test concentration 10 uM, cell line HepG2-A16-CD81EGFP
experimental-context: human, HepG2-A16-CD81EGFP cells; read-out: INHIBITION

| compound | cytotoxicity at 10 µM, % |
| --- | --- |
| Cc1nc(C(C)n2cc3[nH]cccc-3c2=O)cs1 (configuration not stated) | -3.13 |
| CCn1c(SCC(N)=O)nnc1C(C)NC(=O)c1ccc(Cl)cc1 (configuration not stated) | -36.4 |
| CC(Cn1ccnc1)NC(=O)NCCc1cccs1 (configuration not stated) | -3.16 |
| CCOc1ccc(C2CCCN2C(=O)NCCn2ccnc2)cc1 (configuration not stated) | 0.632 |
| CCOCc1cnc2n1CCN(C(=O)Cc1cccs1)C2C (configuration not stated) | 8.04 |
| CC(c1ccccc1)N(C)C(=O)CNCCn1cccn1 (configuration not stated) | 4.58 |
| CCn1ccc2ccc(CN3CCCC3c3nc(C(C)C)no3)cc21 (configuration not stated) | 5.15 |
| Cc1cnn(CC2CCCCN2Cc2nnc(C3CC3)n2C)c1 (configuration not stated) | 2.36 |
| Cc1nc2ccccc2nc1NCc1nnc2n1CCC2 | -1.8 |
| c1nc(CN2CCCC(Cc3ccc(NC4CCCC4)nn3)C2)c[nH]1 (configuration not stated) | 3.6 |
| Cc1nnc(C(C)N2CCCN(Cc3noc(C4CC4)n3)CC2)o1 (configuration not stated) | -21.2 |
| CCC1=N[C@@]2(CC[C@@H]3CN(Cc4cccc(Cl)c4)C[C@@H]32)C(=O)N1C | -102 |
| CC1CCN(c2nc3cn(-c4ccccc4)c(=O)c-3c[nH]2)CC1 | -12.6 |
| Cc1c(C)n2c(SCC(=O)N3CCCC3)nnc2[nH]c1=O | 2.4 |
| N#CCc1cccc(C(=O)N2CCN(CC(O)c3ccccc3)CC2)c1 (configuration not stated) | -10.7 |
| CCCOC1CCCN(c2nc(COC)nc3c2cnn3C)C1 (configuration not stated) | -1.42 |
| Cc1nc2cc(F)ccc2cc1C(=O)N1CCN(CC(C)O)CC1 (configuration not stated) | 2.49 |
| Cc1cnn(-c2ccc(S(=O)(=O)N(C)CC(C)(CO)CO)cc2F)c1 | 12.5 |
| Cc1noc([C@@H]2C[C@H]3CN(CC4CCOCC4)C[C@H]3O2)n1 | -137 |
| c1ccc(-c2cc(CNCCCC3CCOC3)c3nnnn3c2)cc1 (configuration not stated) | -22.3 |
| O=C(CC1CCN(c2ncnc3ccccc23)CC1)N1CCCC1 | 35.1 |
| CNc1cc(N2CCCC2CNCc2cccs2)ncn1 (configuration not stated) | -12.3 |

Numbers sourced from ChEMBL document CHEMBL4513216.
